System: NCI-H23 lung
procedureSummary: NCI tumour cell line growth inhibition, 48 h
Where a SMILES comes first, the peptide text is derived from it. [ ]: non-standard residue; d: D form. The star is where a group is joined. NMeV = CN[C@H](C(=O)O)C(C)C; X29 = COc1ccc(CN*)c(OC)c1; Octanoyl = CCCCCCCC(=O)*; dNMeA = CN[C@H](C)C(=O)O
experimentalReadout: TGI

Prompt: Entry "Oc1ccc(-c2cc(-c3cc(-c4ccc(O)cc4)no3)on2)cc1" has what TGI?
Response: > 100 µM

Prompt: Another: "N#CC(=C1C=CC(=NO)C=C1)c1ccc(Cl)cc1"
Response: 75.3 µM

Prompt: Another: CCCCCCCC(=O)N[C@H](C(=O)N[C@H](C(=O)N(C)[C@H](C(=O)N1CCC[C@H]1C(=O)N(C)[C@H](C)C(=O)NCc1ccc(OC)cc1OC)C(C)C)C(C)C)C(C)C (Octanoyl-VV[NMeV]P[dNMeA]-X29)
Response: > 82.4 µM

Prompt: Another: "CCCc1c(-c2ccccc2)[nH]c2ccccc2c1=O"
Response: > 100 µM

Prompt: Another: "Cc1c(/C=N/N=C/c2[nH]c(C(=O)OC(C)(C)C)c(C)c2C)[nH]c(C(=O)OC(C)(C)C)c1C"
Response: > 100 µM

Prompt: Another: "OCCNCCN1CCN(CCCN2c3ccccc3Sc3ccc(C(F)(F)F)cc32)CC1"
Response: 51 µM

Prompt: Another: "O=C1c2cccnc2C(=O)c2c1c(C(=O)NCCCN1CCCCC1)c1ccccn21"
Response: 2.75 µM

Prompt: Another: "CS(=O)(=O)c1ccc(-c2cc(-c3ccc(S(C)(=O)=O)cc3)[n+](-c3cc(-c4ccc(S(C)(=O)=O)cc4)c([O-])c(-c4ccc(S(C)(=O)=O)cc4)c3)c(-c3ccc(S(C)(=O)=O)cc3)c2)cc1"
Response: > 100 µM

Prompt: Another: "CCCCCCCCCCCCCCCCCC[n+]1ccc2c(C)c3c(c(C)c2c1)c1cc(O)ccc1n3CC"
Response: 6.57 µM

Prompt: Another: O=c1[nH]c(=O)n(C2CC(O)C(COP(=O)(OCc3ccc([N+](=O)[O-])o3)N(CCCCCl)CC(O)CO)O2)cc1F (centres undefined)
Response: > 100 µM

Prompt: Another: "C[n+]1ccc(/C2=C3\C=CC(=N3)/C(c3cc[n+](C)cc3)=c3/cc/c([nH]3)=C(\c3cc[n+](C)cc3)C3=N/C(=C(/c4cc[n+](C)cc4)C4C=CC2N4)C=C3)cc1"
Response: > 100 µM

Prompt: Another: Cc1[nH]c2ccccc2c1C(=O)CC1(O)C(=O)Nc2c(Cl)cc(Cl)cc21 (centres undefined)
Response: 44.5 µM

Prompt: Another: "CN(N=O)C(=O)ON1C(=O)CCC1=O"
Response: > 100 µM

Prompt: Another: "CN=c1ccc2nc3ccc(N)cc3sc-2c1"
Response: 12.9 µM

Prompt: Another: "CO/C(=N\N=C\c1ccc(OC)c(OC)c1)c1ccncc1"
Response: > 10 µM

Prompt: Another: O=C1CC(c2c[nH]c3ccccc23)C(=O)N1 (centres undefined)
Response: > 100 µM

Prompt: Another: CCN1C(=O)c2cc(OC)c(OC)cc2C(=O)C12OC(=O)c1cc3c(cc12)OCO3 (centres undefined)
Response: > 100 µM

Prompt: Another: N#CC1C(=O)NC23CCCCC2C1c1ccccc1O3 (centres undefined)
Response: > 100 µM

Prompt: Another: "NC(N)=NCC[C@H](NC(=O)OCCCCCn1ccc(=O)[nH]c1=O)C(=O)O"
Response: > 100 µM

Prompt: Another: "CC1=NN(C(=O)c2ccncc2)C(=O)C1"
Response: > 100 µM

Prompt: Another: "O=C1c2c(c3c4ccccc4[nH]c3c3ccc4ccccc4c23)C(=O)N1CCN1CCNCC1"
Response: 3.7 µM

Prompt: Another: "CC(=O)Nc1ccc(SC#N)c2c(NC(C)=O)cccc12"
Response: > 100 µM

Prompt: Another: O=C1CCC(N2Cc3cc(CNC(=O)C(F)(F)c4ccc(Cl)cc4)ccc3C2=O)C(=O)N1 (centres undefined)
Response: > 100 µM

Prompt: Another: Cc1ccccc1-n1c(=O)c2ncn(C3CCCO3)c2n(-c2ccccc2C)c1=S (centres undefined)
Response: > 100 µM

Values from PubChem BioAssay (NCI)
